target.desc: MDM2 (Homo sapiens)
Sequence (Q00987 whole entry): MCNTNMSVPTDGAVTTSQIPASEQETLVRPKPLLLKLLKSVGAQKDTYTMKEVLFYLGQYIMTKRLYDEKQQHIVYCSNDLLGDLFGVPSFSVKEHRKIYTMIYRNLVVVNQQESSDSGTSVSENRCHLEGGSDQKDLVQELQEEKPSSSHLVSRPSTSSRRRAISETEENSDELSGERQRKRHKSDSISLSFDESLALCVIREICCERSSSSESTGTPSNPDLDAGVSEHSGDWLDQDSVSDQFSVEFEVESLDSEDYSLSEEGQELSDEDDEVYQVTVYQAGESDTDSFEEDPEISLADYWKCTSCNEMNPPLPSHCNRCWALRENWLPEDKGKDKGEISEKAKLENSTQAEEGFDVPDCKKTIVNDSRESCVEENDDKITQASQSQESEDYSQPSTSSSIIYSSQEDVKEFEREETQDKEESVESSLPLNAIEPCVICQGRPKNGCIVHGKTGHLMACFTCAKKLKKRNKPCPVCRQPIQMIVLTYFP
method: MDM2 binding screen of Libraries 3 and 4: displacement of fluorescent probe F-M8 at 750 nM macrocycle
stated.conditions: Panel b, Library 3: 63 scaffolds combinatorially acylated with 15 carboxylic acids at 30 picomole scale; displacement of fluorescent peptide probe; macrocycle 750 nM
Assign fraction of fluorescent probe displaced to each entry below.
One number for each entry.

Some solved cases for reference:
[
  {
    "structure.notation": "O=C(/C=C/c1ccc2ccccc2c1)NC[C@@H]1NC(=O)[C@H]2CCCN(C2)C(=O)CCSSCCNC(=O)[C@H](Cc2c[nH]c3cc(Cl)ccc23)NC1=O",
    "target.desc": "MDM2 (Homo sapiens)",
    "endpoint.result": 0.221
  },
  {
    "structure.notation": "O=C1CCSSCCNC(=O)[C@H](Cc2c[nH]c3ccccc23)NC(=O)[C@H](CNC(=O)c2ccc(Cl)cc2)NC(=O)C2(CC2)CN1",
    "target.desc": "MDM2 (Homo sapiens)",
    "endpoint.result": 0.048
  },
  {
    "structure.notation": "O=C(NC[C@H]1NC(=O)[C@H]2CCCN(C2)C(=O)CCSSCCNC(=O)[C@H](Cc2c[nH]c3ccccc23)NC1=O)c1ccc(Cl)cc1",
    "target.desc": "MDM2 (Homo sapiens)",
    "endpoint.result": -0.00533
  },
  {
    "structure.notation": "O=C1CN(CCNC(=O)c2ccc(Cl)cc2)C(=O)[C@H]2CCCN(C2)C(=O)CCSSCCNC(=O)[C@H](Cc2ccc3ccccc3c2)N1",
    "target.desc": "MDM2 (Homo sapiens)",
    "endpoint.result": 0.00133
  }
]

Input line: For the compound shown here, Cn1cc(C[C@@H]2NC(=O)[C@H](CNC(=O)/C=C/c3ccc4ccccc4c3)NC(=O)[C@H]3CCCN(C3)C(=O)CCSSCCNC2=O)c2ccccc21 , give the reported fraction of fluorescent probe displaced.
Output line: 0.188
